Reference source for all entries: patent US5229381A

- ASSAYED_TARGET: human polymorphonuclear leukocyte elastase (Homo sapiens, UniProt P08246)
- Construct: Crude extract of human polymorphonuclear leukocytes (PMN) containing elastase activity; endogenous in cells; host or cells: human polymorphonuclear leukocytes (crude extract)
- Sequence (P08246 30-247 limits assumed): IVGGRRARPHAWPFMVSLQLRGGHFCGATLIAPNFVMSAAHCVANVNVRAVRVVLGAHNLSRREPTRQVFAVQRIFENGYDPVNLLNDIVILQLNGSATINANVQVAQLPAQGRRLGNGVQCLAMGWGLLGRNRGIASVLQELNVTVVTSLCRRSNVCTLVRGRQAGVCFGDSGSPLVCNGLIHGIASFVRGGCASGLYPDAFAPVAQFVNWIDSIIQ
- ASSAY_INFO: Inhibition of human polymorphonuclear leukocyte (granulocyte) elastase via hydrolysis of Boc-AAPAN or Boc-AAPVN
- Assay type: biochemical
- TEST_SETTINGS: pH 7.5, Table VI, (per mole per second); read-out: kobs/I, second order rate constant of inactivation of the enzyme
Could you please report measured log10 of kinact/KI for the items listed next?
Please be aware that the numbers have been log10-transformed from kinact/KI in M⁻¹ s⁻¹.

// known answers, use as guide
CCC[C@@H](NC(=O)N1C(=O)C(CC)(CC)[C@@H]1Oc1ccc(CC(=O)O)cc1)c1ccccc1 [Table VI: 4-CH2 COOH; nPr; H] :: 5.27
CCC[C@@H](NC(=O)N1C(=O)C(CC)(CC)[C@@H]1Oc1ccc(CC(=O)O)cc1)c1ccc2occc2c1 [Table VI: 4-Ch2(OOH); nPr; 3,4(-CHCHO)] :: 5.93
C=CC[C@@H](NC(=O)N1C(=O)C(CC)(CC)[C@@H]1Oc1ccc(CC(=O)O)cc1)c1ccc(C)cc1 [Table VI: 4-CH2 COOH; allyl; 4-Me] :: 5.82
CCC1(CC)C(=O)N(C(=O)N[C@H](c2ccccc2)C(C)C)[C@H]1Oc1ccc(C(=O)O)cc1 [Table VI: 4-COOH; iPr(S); H] :: 3.68
CC[C@@H](NC(=O)N1C(=O)C(CC)(CC)[C@@H]1Oc1cc(C)c(C(=O)O)c(C)c1)c1ccccc1 [Table VI: 3,5-Me2-4-COOH; Et; H] :: 4.40

Each of the following entries comes with a recorded value; kindly state log10 of kinact/KI for each.
1. CCC1(CC)C(=O)N(C(=O)N[C@H](C)c2ccc(-c3ccccc3Cl)cc2)[C@H]1Oc1ccc(C(=O)O)cc1 [Table VI: 4-COOH; Me; 4-(2'-ClPh)]
2. CCC1(CC)C(=O)N(C(=O)N[C@H](C)c2ccccc2)[C@H]1Oc1cccc(CC(=O)O)c1 [Table VI: 3-CH2 COOH; Me; H]
3. C=CC[C@@H](NC(=O)N1C(=O)C(CC)(CC)[C@@H]1Oc1ccc(CC(=O)O)cc1)c1ccc2c(c1)OCO2

## Output
1: 5.39; 2: 3.77; 3: 5.78

Tested on human polymorphonuclear leukocyte elastase (Homo sapiens, UniProt P08246), the item CCC1(CC)C(=O)N(C(=O)N[C@H](C)c2ccc(-c3ccccc3)cc2)[C@H]1Oc1ccc(C(=O)O)cc1 [Table VI: 4-COOH; Me; 4-Ph] showed log10 of kinact/KI equal to 4.87

---

- ASSAYED_TARGET: human polymorphonuclear leukocyte elastase (Homo sapiens)
- Construct: Crude extract of human polymorphonuclear leukocytes (PMN) containing elastase activity; endogenous in cells; host or cells: human polymorphonuclear leukocytes (crude extract)
- ASSAY_INFO: Inhibition of human polymorphonuclear leukocyte (granulocyte) elastase via hydrolysis of Boc-AAPAN or Boc-AAPVN
- Type: biochemical
- TEST_SETTINGS: pH 7.5, Table III, (per mole per second); read-out: kobs/I, second order rate constant of inactivation of the enzyme
Could you please report measured kinact/KI for the items listed next?
Give bare numbers, in M⁻¹ s⁻¹.

CCC1(CC)C(=O)N(C(=O)NCc2ccc(-c3ccccc3)cc2)C1n1cncn1 (centres unmarked) [Table III: 1-triazolyl; CH2 Ph-4-Ph] :: 2140
CCC1(CC)C(=O)N(C(=O)NCc2ccccc2)C1Oc1ccc(C(NC(C)=O)C(=O)O)cc1 (centres unmarked) [Table III: O-(4-CH(COOH)NHAcPh); CH2 Ph] :: 1680
CCC1(CC)C(=O)N(C(=O)NCc2ccc(-c3cccc(C(=O)O)c3)cc2)C1Oc1ccc(C(=O)O)cc1 (centres unmarked) :: 14700
CCC1(CC)C(=O)N(C(=O)NCc2ccc(-c3ccccc3)cc2)C1n1ccnc1 (centres unmarked) [Table III: 1-imidazole; CH2 Ph-4-Ph] :: 461

As a next step, examine the compound that follows.
Tested on human polymorphonuclear leukocyte elastase (Homo sapiens), the item CCC1(CC)C(=O)N(C(=O)NCc2ccc(-c3ccccc3)cc2)C1Oc1ccc(CC(=O)O)cc1 (centres unmarked) showed kinact/KI equal to 28900
